The values you see were collected from paper doi:10.1101/2025.03.12.642038.

- measurement.target: T1, IRF4 DBD D117A (Homo sapiens, UniProt Q15306 20-132, D117A)
- T1 sequence: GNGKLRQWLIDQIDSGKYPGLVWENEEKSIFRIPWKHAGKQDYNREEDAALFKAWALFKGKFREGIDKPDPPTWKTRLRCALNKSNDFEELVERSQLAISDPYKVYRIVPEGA
- test.details: FP; FP: PBS + 0.05% Tween20, 5 nM DNA, 1 h, room temperature; SPR: Biacore S200, SA chip, protein 0.1-4500 nM, running buffer not given in material; errors are SD
- condition.summary: protein: recombinant; tags: N-terminal His8-linker-His8-TEV, cleaved; label: 3' fluorescein (FAM); hairpin, TTTT loop
assay.metric: Kd (µM)
Supply the numeric figure in µM, leaving out any unit text.

Query :: Let me know recorded Kd for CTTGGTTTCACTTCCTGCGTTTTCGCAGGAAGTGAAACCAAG (structured_DNA) [IRE hairpin (FAM)] , thanks.
Result :: 0.109
